# System: Rattus norvegicus
# Method: Antihypertensive activity in Sprague-Dawley rat assessed as change in systolic arterial pressure at 5 mg/kg, iv
Parameter Measured: Activity (%)
Give your result in % as a bare value.

// Activity lookup, key: COc1ccc(CCNC(C)COc2c(C)cc(Br)cc2C)cc1O.Cl (configuration not stated)
-3.5

And the next one, COc1ccc(CCNC(C)COc2c(C)cc(Cl)cc2C)cc1OC.Cl (configuration not stated) ?
-13.3

And the next one, COc1cc(CCNC(C)COc2c(C)cc(C#N)cc2C)ccc1O.Cl (configuration not stated) ?
-17.3

Continuing:
// Activity lookup, key: COc1cc(CCNC(C)COc2c(C)cc(C)cc2C)ccc1O.Cl (configuration not stated)
-36.45

And the next one, COc1ccc(CCNC(C)COc2c(C)ccc(C)c2C)cc1OC.Cl (configuration not stated) ?
-17.4

And the next one, COc1ccc(CCNC(C)COc2c(C)cc(Br)cc2C)cc1OC.Cl (configuration not stated) ?
-9.2

And the next one, COc1ccc(CCNC(C)COc2c(C)cc(C#N)cc2C)cc1O.Cl (configuration not stated) ?
-8.2

And the next one, COc1cc(CCNC(C)COc2c(C)cc(Br)cc2C)ccc1O.Cl (configuration not stated) ?
-7.6

And the next one, COc1cc(CCNC(C)COc2c(C)cc(Cl)cc2C)ccc1O.Cl (configuration not stated) ?
-12.1

And the next one, COc1ccc(CCNC(C)COc2c(C)cc(C)cc2C)cc1OC.Cl (configuration not stated) ?
-19.03

And the next one, COc1ccc(CCNC(C)COc2c(C)cccc2C)cc1OC.Cl (configuration not stated) ?
-19.79

And the next one, COc1cc(CCNC(C)COc2c(C)ccc(C)c2C)ccc1O.Cl (configuration not stated) ?
-7.9

====

# System: Rattus norvegicus
# Method: Antihypertensive activity in Sprague-Dawley rat assessed as change in diastolic arterial pressure at 5 mg/kg, iv
Parameter Measured: Activity (%)
Give your result in % as a bare value.

Consider the following illustrative entries.
// Activity lookup, key: COc1ccc(CCNC(C)COc2c(C)cc(C#N)cc2C)cc1O.Cl (configuration not stated)
-14.2

And the next one, COc1ccc(CCNC(C)COc2c(C)ccc(C)c2C)cc1OC.Cl (configuration not stated) ?
-34.2

And the next one, COc1cc(CCNC(C)COc2c(C)cc(C#N)cc2C)ccc1O.Cl (configuration not stated) ?
-29.61

And the next one, COc1ccc(CCNC(C)COc2c(C)cc(Br)cc2C)cc1OC.Cl (configuration not stated) ?
-7.8

Continuing:
// Activity lookup, key: COc1cc(CCNC(C)COc2c(C)cc(Br)cc2C)ccc1O.Cl (configuration not stated)
-19.1

====

Quick reference: pA2 of the listed items.
# Target Or Test System: Adrenergic receptor alpha-1 (Rattus norvegicus, UniProt P15823+P23944+P43140)
# Method: Antagonist activity at alpha1 adrenergic receptor in Sprague-Dawley rat anococcygeus smooth muscle assessed as inhibition of phenylepinephrine-induced muscle contraction treated 20 mins before phenylepinephrine challenge
# Format: functional
Please reply with the value in numeric form only.

Consider the following illustrative entries.
// pA2 lookup, key: COc1ccc(CCNC(C)COc2c(C)cc(Br)cc2C)cc1OC.Cl (configuration not stated)
6.93

And the next one, COc1ccc(CCNC(C)COc2c(C)cc(C)cc2C)cc1OC.Cl (configuration not stated) ?
7.25

And the next one, COc1ccc(CCNC(C)COc2c(C)ccc(C)c2C)cc1OC.Cl (configuration not stated) ?
7.71

Below: the item to evaluate.
// pA2 lookup, key: COc1cc(CCNC(C)COc2c(C)ccc(C)c2C)ccc1O.Cl (configuration not stated)
8.02

====

# Test system: Rattus norvegicus
# Method: Antihypertensive activity in Sprague-Dawley rat assessed as change in diastolic arterial pressure at 5 mg/kg, iv
Parameter Measured: Activity (%)
Give your result in % as a bare value.

Consider the following illustrative entries.
// Activity lookup, key: COc1ccc(CCNC(C)COc2c(C)cccc2C)cc1OC.Cl (configuration not stated)
-26

And the next one, COc1cc(CCNC(C)COc2c(C)cc(Cl)cc2C)ccc1O.Cl (configuration not stated) ?
-25.1

And the next one, COc1cc(CCNC(C)COc2c(C)cc(C)cc2C)ccc1O.Cl (configuration not stated) ?
-48.99

And the next one, COc1ccc(CCNC(C)COc2c(C)cc(Cl)cc2C)cc1OC.Cl (configuration not stated) ?
-18.5

And the next one, COc1ccc(CCNC(C)COc2c(C)cc(C)cc2C)cc1OC.Cl (configuration not stated) ?
-28.23

Continuing:
// Activity lookup, key: COc1cc(CCNC(C)COc2c(C)ccc(C)c2C)ccc1O.Cl (configuration not stated)
-20.5

And the next one, COc1ccc(CCNC(C)COc2c(C)cc(Br)cc2C)cc1O.Cl (configuration not stated) ?
-12.8

====

# Target Or Test System: Adrenergic receptor alpha-1 (Rattus norvegicus, UniProt P15823+P23944+P43140)
# Method: Antagonist activity at alpha1 adrenergic receptor in Sprague-Dawley rat anococcygeus smooth muscle assessed as inhibition of phenylepinephrine-induced muscle contraction treated 20 mins before phenylepinephrine challenge
# Type: functional
Parameter Measured: pA2
Please reply with the value in numeric form only.

Consider the following illustrative entries.
// pA2 lookup, key: COc1cc(CCNC(C)COc2c(C)cc(C)cc2C)ccc1O.Cl (stereo not drawn)
8.86

And the next one, COc1ccc(CCNC(C)COc2c(C)cc(Br)cc2C)cc1O.Cl (stereo not drawn) ?
7.02

And the next one, COc1cc(CCNC(C)COc2c(C)cc(Br)cc2C)ccc1O.Cl (stereo not drawn) ?
9.94

And the next one, COc1ccc(CCNC(C)COc2c(C)cc(C#N)cc2C)cc1O.Cl (stereo not drawn) ?
5.61

And the next one, COc1cc(CCNC(C)COc2c(C)cc(Cl)cc2C)ccc1O.Cl (stereo not drawn) ?
8.6

And the next one, COc1cc(CCNC(C)COc2c(C)cc(C#N)cc2C)ccc1O.Cl (stereo not drawn) ?
6.65

And the next one, COc1ccc(CCNC(C)COc2c(C)cccc2C)cc1OC.Cl (stereo not drawn) ?
8.07

Below: the item to evaluate.
// pA2 lookup, key: COc1ccc(CCNC(C)COc2c(C)cc(Cl)cc2C)cc1OC.Cl (stereo not drawn)
8.18
